All figures here come from ChEMBL document CHEMBL1132638.

Consider the following compounds and their measured logP readings.
Assay: Partition coefficient (logP)
Type: physicochemical
Details: octanol/water
Answer with the value's number alone.

* CN1CCN(C2=Nc3ccccc3Nc3ccc(Cl)cc32)CC1 | 3.48
* CN1CCN(C2=Nc3ccccc3Sc3ccc(OS(=O)(=O)C(F)(F)F)cc32)CC1 | 4.04
* CN1CCN(C2=Nc3cc(Cl)ccc3Nc3ccc(OS(=O)(=O)C(F)(F)F)cc32)CC1 | 4.3
* CN1CCN(C2=Nc3ccccc3Oc3ccc(OS(C)(=O)=O)cc32)CC1 | 1.98

Given the entry CN1CCN(C2=Nc3cc(O)ccc3Nc3ccccc32)CC1 , report its measured logP.
2.21

Which logP value belongs to CN1CCN(C2=Nc3cc(OS(=O)(=O)C(F)(F)F)ccc3Nc3ccccc32)CC1 ?
3.58

Form field: reported logP of CN1CCN(C2=Nc3ccccc3Nc3ccc(O)cc32)CC1
2.21

Please look up its logP: CN1CCN(C2=Nc3ccccc3Nc3ccc(OS(C)(=O)=O)cc32)CC1
1.8

Tell me the measured logP of O=C(CCCN1CCC(O)(c2ccc(Cl)cc2)CC1)c1ccc(F)cc1 , please.
3.98
